# Protocol Text: Plasma pharmacokinetics of parenterally administered dutogliptin
# Assay type: in vivo, human
# Test Parameters: human, plasma, sc, 60 mg
Value Type: k el (s⁻¹)
Write it as a number; the unit s⁻¹ goes unstated.

If you can, please state the reported k el value of "O=C(CN[C@@H]1CCNC1)N1CCC[C@H]1B(O)O" . 5.56e-05

----------
# Protocol Text: Plasma pharmacokinetics of parenterally administered dutogliptin
# Assay type: in vivo, human
# Test Parameters: human, plasma, sc, 30 mg, T1/2, 30 mg s.c. (n = 5), day 0, mean (SD)
Value Type: half-life (h)
Just the number please, in h, no unit attached.

Give its half-life value. Item: "O=C(CN[C@@H]1CCNC1)N1CCC[C@H]1B(O)O" 3.37
